- test.target: acetylcholine receptor
- measurement.protocol: SPR, AchR immobilized on CM5 chip, peptide at 10 µM
Quick reference: Binding affinity (RU) of the listed items.
readout.name: Binding affinity (RU)

> print(dat)
              binder  measured.value
 1  RRLYK [5mer-403]              64
 2  RWQQR [5mer-141]              50
 3  RVVYK [5mer-421]              68
 4  KGYYK [5mer-447]              76
 5  RWLLR [5mer-115]              75
 6  KLYLR [5mer-416]              67
 7  RWRCK [5mer-400]              70
 8  RRIYK [5mer-136]              75
 9  RQQYR [5mer-101]              55
10  KGRLR [5mer-411]              66
11  KWLQK [5mer-417]              65
12  KVYLR [5mer-406]              84
13  RRQLK [5mer-423]              60
14  KLRQR [5mer-435]              69
15  RSQTK [5mer-148]              50
16  RWFLK [5mer-103]              62
17  RVRCK [5mer-132]              83
